Where do the numbers come from? From patent US20230106943A1.

assay: Example 6 solubility near saturation of SEQ ID NO: 1 in water at pH 5.0, 7.4, 8.1 (HPLC); assay type: physicochemical; details: pH 5, water, pH 5.0; read-out: Solubility of near saturation, Concentration
No end group written: not given here.
metric_name: solubility

Can you share its solubility? I mean this substance: RRWVRRVRRVWRRVVRVVRRWVRR-NH2 [SEQ ID NO: 1]
≥ 328 mg/mL

---

No end group written: not given here.
metric_name: solubility

Can you share its solubility? I mean this substance: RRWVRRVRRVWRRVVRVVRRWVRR-NH2 [SEQ ID NO: 1]
> 100 mg/mL

---

assay: Example 6 solubility near saturation of SEQ ID NO: 1 in water at pH 5.0, 7.4, 8.1 (HPLC); format: physicochemical; conditions: pH=8.1; read-out: solubility near saturation concentration in water
No end group written: not given here.
metric_name: solubility (mg/mL)
Dear colleague, please return just the value in mg/mL, with no unit written.

Can you share its solubility? I mean this substance: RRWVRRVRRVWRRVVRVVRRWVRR-NH2 [SEQ ID NO: 1]
250

---

test: Example 6 solubility near saturation of SEQ ID NO: 1 in water at pH 5.0, 7.4, 8.1 (HPLC); format: physicochemical; settings: pH 8.1, water, pH 8.1; read-out: Solubility of near saturation, Concentration
No end group written: not given here.
metric_name: solubility

Can you share its solubility? I mean this substance: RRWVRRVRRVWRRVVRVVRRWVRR-NH2 [SEQ ID NO: 1]
≥ 250 mg/mL

---

experiment: Example 6 solubility near saturation of SEQ ID NO: 1 in water at pH 5.0, 7.4, 8.1 (HPLC); type: physicochemical; conditions: pH=7.4; read-out: solubility near saturation concentration in water
No end group written: not given here.
metric_name: solubility (mg/mL)
Dear colleague, please return just the value in mg/mL, with no unit written.

Can you share its solubility? I mean this substance: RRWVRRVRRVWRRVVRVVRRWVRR-NH2 [SEQ ID NO: 1]
228

---

assay: Example 6 solubility near saturation of SEQ ID NO: 1 in water at pH 5.0, 7.4, 8.1 (HPLC); assay type: physicochemical; settings: pH=5.0; read-out: solubility near saturation concentration in water
No end group written: not given here.
metric_name: solubility (mg/mL)
Dear colleague, please return just the value in mg/mL, with no unit written.

Can you share its solubility? I mean this substance: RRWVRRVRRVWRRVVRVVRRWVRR-NH2 [SEQ ID NO: 1]
328
